# TEST_TARGET: Cannabinoid receptor 2 (Homo sapiens)
# Sequence (P34972 whole entry): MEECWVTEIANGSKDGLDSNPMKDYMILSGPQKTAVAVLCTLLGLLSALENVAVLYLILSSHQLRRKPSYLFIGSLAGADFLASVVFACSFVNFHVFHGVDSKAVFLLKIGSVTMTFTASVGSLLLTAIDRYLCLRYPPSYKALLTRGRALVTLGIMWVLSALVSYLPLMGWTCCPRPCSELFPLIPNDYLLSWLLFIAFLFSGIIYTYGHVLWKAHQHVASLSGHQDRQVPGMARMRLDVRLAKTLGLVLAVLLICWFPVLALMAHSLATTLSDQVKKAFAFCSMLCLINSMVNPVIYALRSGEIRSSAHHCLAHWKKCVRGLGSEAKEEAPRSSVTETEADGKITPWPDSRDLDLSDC
# ASSAY_NAME: Displacement of [3H]CP55,940 from N-terminal HA-tagged human CB2 receptor expressed in HEK293 cell membranes after 1 hr by microbeta scintillation counting method
# TEST_CONTEXT: read-out: Ki
Decide using Ki alone. Strictly below 1000 nM: label 1. Equal to or above 1000 nM: label 0.

MOLECULE: O=C(CCCCCNC(=O)COc1ccc(/C=C/C2=[N+]3C(=Cc4ccc(-c5cccs5)n4[B-]3(F)F)C=C2)cc1)NCCOCCOCCNC(=O)COc1ccc2c(c1)c(C(=O)c1cccc3ccccc13)cn2CCN1CCOCC1
CATEGORY: label 0
--
MOLECULE: COc1ccc(C(=O)c2cn(CC3CCOCC3)c3c(OCCCCCCNC(C)=O)cccc23)cc1
CATEGORY: label 0
--
MOLECULE: COc1ccc(C(=O)c2cn(CC3CCOCC3)c3ccc(OCC(=O)O)cc23)cc1
CATEGORY: label 0
--
MOLECULE: COc1ccc(C(=O)c2cn(CC3CCOCC3)c3c(OCC(=O)O)cccc23)cc1
CATEGORY: label 1
--
MOLECULE: CCCOc1cccc2c(C(=O)c3ccc(OC)cc3)cn(CC3CCOCC3)c12
CATEGORY: label 1
--
MOLECULE: O=C(c1cccc2ccccc12)c1cn(CC2CCOCC2)c2ccc(O)cc12
CATEGORY: label 1
--
MOLECULE: O=C(c1cn(CCN2CCOCC2)c2ccc(O)cc12)C1CCCCC1
CATEGORY: label 1
--
MOLECULE: COC(=O)CCCCOc1cccc2c(C(=O)c3ccc(OC)cc3)cn(CC3CCOCC3)c12
CATEGORY: label 1
--
MOLECULE: COc1ccc(C(=O)c2cn(CC3CCOCC3)c3ccc(O)cc23)cc1
CATEGORY: label 1
--
MOLECULE: COc1ccc(C(=O)c2cn(CCN3CCOCC3)c3ccc(OCC(=O)NCCCCCCCCN)cc23)cc1
CATEGORY: label 0
--
MOLECULE: COc1ccc(C(=O)c2cn(CC3CCOC3)c3ccc(O)cc23)cc1 (stereo unspecified)
CATEGORY: label 0
--
MOLECULE: O=C(O)COc1ccc2c(c1)c(C(=O)c1cccc3ccccc13)cn2CCN1CCOCC1
CATEGORY: label 0
--
MOLECULE: O=C(c1cccc2ccccc12)c1cn(CCN2CCOCC2)c2ccc(O)cc12
CATEGORY: label 1
--
MOLECULE: COc1ccc(C(=O)c2cn(CCN3CCOCC3)c3ccc(OCC(=O)NC(C)(C)C(=O)NC(C)(C)C(=O)NCCNC(=O)CCCCCNC(=O)COc4ccc(/C=C/C5=[N+]6C(=Cc7ccc(-c8cccs8)n7[B-]6(F)F)C=C5)cc4)cc23)cc1
CATEGORY: label 0
--
MOLECULE: COc1ccc(C(=O)c2cn(CC3CCOCC3)c3c(OCCCCC(=O)NCCOCCOCCNC(C)=O)cccc23)cc1
CATEGORY: label 0
--
MOLECULE: CC(C)(NC(=O)COc1ccc2c(c1)c(C(=O)c1cccc3ccccc13)cn2CCN1CCOCC1)C(=O)NC(C)(C)C(=O)NCCNC(=O)CCCCCNC(=O)COc1ccc(/C=C/C2=[N+]3C(=Cc4ccc(-c5cccs5)n4[B-]3(F)F)C=C2)cc1
CATEGORY: label 0
--
MOLECULE: COc1ccc(C(=O)c2cn(CCN3CCOCC3)c3ccc(OCC(=O)O)cc23)cc1
CATEGORY: label 0
--
MOLECULE: COc1ccc(C(=O)c2cn(CCN3CCOCC3)c3ccc(OCC(=O)NCCOCCOCCN)cc23)cc1
CATEGORY: label 0
--
MOLECULE: COc1ccc(C(=O)c2cn(CCN3CCOCC3)c3ccc(OCCCCC(=O)NCCOCCOCCNC(=O)CCCCCNC(=O)COc4ccc(/C=C/C5=[N+]6C(=Cc7ccc(-c8cccs8)n7[B-]6(F)F)C=C5)cc4)cc23)cc1
CATEGORY: label 0
--
MOLECULE: COc1ccc(C(=O)c2cn(CC3CCOCC3)c3ccc(OCC(=O)NC(C)(C)C(=O)NC(C)(C)C(=O)NCCNC(=O)CCCCCNC(=O)COc4ccc(/C=C/C5=[N+]6C(=Cc7ccc(-c8cccs8)n7[B-]6(F)F)C=C5)cc4)cc23)cc1
CATEGORY: label 0
--
MOLECULE: NCCCCCCCCNC(=O)COc1ccc2c(c1)c(C(=O)c1cccc3ccccc13)cn2CCN1CCOCC1
CATEGORY: label 0
--
MOLECULE: COc1ccc(C(=O)c2cn(CC3CCOCC3)c3ccc(OCCOCCOCCOCCNC(C)=O)cc23)cc1
CATEGORY: label 0
--
MOLECULE: COc1ccc(C(=O)c2cn(CCN3CCOCC3)c3ccc(OCC(=O)NCCOCCOCCNC(=O)CCCCCNC(=O)COc4ccc(/C=C/C5=[N+]6C(=Cc7ccc(-c8cccs8)n7[B-]6(F)F)C=C5)cc4)cc23)cc1
CATEGORY: label 0
--
MOLECULE: NCCOCCOCCNC(=O)COc1ccc2c(c1)c(C(=O)c1cccc3ccccc13)cn2CCN1CCOCC1
CATEGORY: label 0
--
MOLECULE: COc1ccc(C(=O)c2cn(CCN3CCOCC3)c3ccc(OCC(=O)NCCOCCOCCNC(C)=O)cc23)cc1
CATEGORY: label 0
--
MOLECULE: COc1ccc(C(=O)c2cn(CCN3CCOCC3)c3cc(O)ccc23)cc1
CATEGORY: label 0
--
MOLECULE: COc1ccc(C(=O)c2cn(CCN3CCOCC3)c3ccc(OCCCCCCC(=O)NCCOCCOCCNC(=O)CCCCCNC(=O)COc4ccc(/C=C/C5=[N+]6C(=Cc7ccc(-c8cccs8)n7[B-]6(F)F)C=C5)cc4)cc23)cc1
CATEGORY: label 0
--
MOLECULE: CCCOc1ccc2c(c1)c(C(=O)c1ccc(OC)cc1)cn2CC1CCOCC1
CATEGORY: label 0
--
MOLECULE: COc1ccc(C(=O)c2cn(CC3CCOCC3)c3c(OCCCCC(=O)O)cccc23)cc1
CATEGORY: label 0
--
MOLECULE: COc1ccc(C(=O)c2cn(CCN3CCOCC3)c3ccc(O)cc23)cc1
CATEGORY: label 1
--
MOLECULE: COc1ccc(C(=O)c2cn(CC3CCOCC3)c3c(O)cccc23)cc1
CATEGORY: label 1

Data credit: ChEMBL document CHEMBL4251662
